- assay-target: BTK (Homo sapiens, UniProt Q06187)
- Construct: purchased Promega Corporation
- Sequence (Q06187 whole entry): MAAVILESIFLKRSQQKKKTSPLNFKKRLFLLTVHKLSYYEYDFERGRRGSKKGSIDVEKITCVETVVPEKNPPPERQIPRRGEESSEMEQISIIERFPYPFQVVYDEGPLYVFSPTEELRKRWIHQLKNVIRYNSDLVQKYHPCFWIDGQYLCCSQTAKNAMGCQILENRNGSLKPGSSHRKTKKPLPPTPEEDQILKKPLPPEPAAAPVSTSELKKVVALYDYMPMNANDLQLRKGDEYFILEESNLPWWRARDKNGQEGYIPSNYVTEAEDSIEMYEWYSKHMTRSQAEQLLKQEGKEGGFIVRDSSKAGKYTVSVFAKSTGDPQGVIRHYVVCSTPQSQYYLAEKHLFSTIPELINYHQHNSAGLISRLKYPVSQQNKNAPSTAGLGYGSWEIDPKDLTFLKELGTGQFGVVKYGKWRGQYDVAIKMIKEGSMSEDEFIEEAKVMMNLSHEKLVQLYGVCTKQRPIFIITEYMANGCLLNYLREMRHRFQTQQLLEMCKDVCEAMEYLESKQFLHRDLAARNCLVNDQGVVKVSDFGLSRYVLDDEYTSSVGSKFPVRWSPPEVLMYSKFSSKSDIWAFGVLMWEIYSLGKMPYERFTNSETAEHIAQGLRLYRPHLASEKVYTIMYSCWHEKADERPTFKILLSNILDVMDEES
- protocol-summary: Inhibitory activity against BTK, ADP-Glo + BTK Kinase enzyme system kit (Promega)
- Assay type: biochemical
- condition-parameters: BTK enzyme 1 ng/μl; ATP 10 µM; 15 min preincubation at room temperature; 1 hour at 30° C.; luminescence; duplicate
readout-kind: pIC50
Answers are plain numbers, as −log10 of the molar value.

Consider the worked cases shown below.
CC#CC(=O)N1CCC[C@H](Nc2cc(OC3CCN(C)CC3)cc(Nc3ncc(C)s3)n2)C1 :: 8.02
C=CC(=O)N1CC[C@H](Nc2nc(CN3CCOCC3)cc(Nc3ncc(C)s3)n2)C1 :: 8.66
C=CC(=O)N1CCC[C@H](Nc2nc(CN3CCOCC3)cc(Nc3ncc(C)s3)n2)C1 :: 8.89

Fill in pIC50 for each of the 2 compounds listed.
1. CC#CC(=O)N1CCC2CCN(c3cc(CN4CCOCC4)cc(Nc4ncc(C)s4)n3)CC21 (centres unmarked)
2. C=CC(=O)N1CCC[C@@H](Nc2cc(CN3CCOCC3)cc(Nc3ncc(C)s3)n2)C1

1. 7.73
2. 9.40

###

pIC50 values recorded for BTK (Homo sapiens)
Answers are plain numbers, as −log10 of the molar value.

Consider the worked cases shown below.
C=CC(=O)N1CCC[C@H](Nc2cc(CN3CCN(C(C)=O)CC3)cc(Nc3ncc(C)s3)n2)C1 :: 8.96
C=CC(=O)N1CCC[C@H](Oc2cc(CN3CCOCC3)cc(Nc3ncc(C)s3)n2)C1 :: 8.64
C=CC(=O)N1CCCC(Oc2cc(CN3CCOCC3)cc(Nc3ncc(C)s3)n2)C1 (stereo not drawn) :: 8.70
C=CC(=O)N1CCC[C@H](Nc2cc(CN3CCN(CC)CC3)cc(Nc3ncc(C)s3)n2)C1 :: 8.52

Next item in the queue.
Kindly note the recorded pIC50 for `C=CC(=O)N1CCC[C@H](Nc2cc(CN3CCOCC3)cc(Nc3ccccn3)n2)C1` , which is 8.11
